# Plant response rating, Barley annotations
Tested on: winter barley (Hordeum vulgare)
Experiment: Test B postemergence plant response
Type: in vivo
Details: Postemergence, 16 g ai/ha; scale 0 to 100, 0 no effect, 100 complete control
Experimental: At the same time, plants selected from these crop and weed species and also winter barley (Hordeum vulgare), canarygrass (Phalaris minor), chickweed (Stellaria media) and windgrass (Apera spica-venti) were treated with postemergence applications of some of the test chemicals formulated in the same manner. Plants ranged in height from 2 to 18 cm (1- to 4-leaf stage) for postemergence treatments. […]
QUANTITY MEASURED: Plant response rating, Barley

CCc1cc(-c2ccc(C(F)(F)F)cc2)nn1-c1c(O)cnn(C)c1=O [Compound 11] | 90
Cc1cc(-c2ccc(Cl)cc2)nn1-c1c(OC(=S)N(C)C)cnn(C)c1=O [Compound 69] | 0
CCc1cc(-c2ccc(F)cc2)nn1-c1c(O)cnn(C)c1=O [Compound 25] | 0

====

Tested on: rice (Oryza sativa)
Assay: Test B flooded paddy test plant response
Format: in vivo
Settings: Flood (flooded paddy test), 125 g ai/ha; scale 0 to 100, 0 no effect, 100 complete control
Excerpt: Plant species in the flooded paddy test consisted of rice (Oryza sativa), umbrella sedge (Cyperus difformis), ducksalad (Heteranthera limosa) and barnyardgrass (Echinochloa crus-galli) grown to the 2-leaf stage for testing. […] Treated plants and controls were maintained in a greenhouse for 13 to 15 days, after which time all species were compared to controls and visually evaluated. […]
QUANTITY MEASURED: Plant response rating, Rice

Cc1cc(-c2ccc(Cl)cc2)nn1-c1c(OC(=O)OCC(C)C)cnn(C)c1=O | 10
Cc1nn(C)c(=O)c(-n2nc(-c3ccc(Br)cc3)cc2C)c1O | 0
Cc1cc(-c2ccc(Cl)cc2)nn1-c1c(OS(=O)(=O)c2ccccc2[N+](=O)[O-])cnn(C)c1=O | 0

====

system: wheat (Triticum aestivum); experiment: Test B pre-/postemergence plant response; type: in vivo; settings: 8 g ai/ha, postemergence; 0-100 scale
# Wheat plant response rating annotations
QUANTITY MEASURED: Wheat plant response rating

CCc1cc(-c2ccc(Cl)cc2)nn1-c1c(OC(=O)C(C)(C)C)cnn(C)c1=O [Compound 40] | 70
Cc1cc(-c2ccc(Cl)cc2)nn1-c1c(OS(C)(=O)=O)cnn(C)c1=O [Compound 36] | 0
CCc1c(C)c(-c2ccc(Cl)cc2)nn1-c1c(O)cnn(C)c1=O [Compound 26] | 0
Cc1cc(-c2ccc(Cl)cc2)nn1-c1c(OC(=O)OCC(C)C)cnn(C)c1=O [Compound 57] | 30
CCc1cc(-c2ccc(Cl)c(Cl)c2)nn1-c1c(O)cnn(C)c1=O [Compound 20] | 0
COC(=O)Oc1cnn(C)c(=O)c1-n1nc(-c2ccc(Cl)cc2)cc1C [Compound 33] | 20
Cc1cc(-c2ccc(Br)cc2)nn1-c1c(O)cn[nH]c1=O [Compound 78] | 50

====

# Plant response rating, Wheat, Spring annotations
system: spring wheat (Triticum aestivum); assay: Test C pre-/postemergence plant response; type: in vivo; conditions: Preemergence, 16 g ai/ha; scale 0 to 100 (0 no effect, 100 complete control)
QUANTITY MEASURED: Plant response rating, Wheat, Spring

COC(=O)Oc1cnn(C)c(=O)c1-n1nc(-c2ccc(Cl)cc2)cc1C | 0
Cc1cn(-c2ccc(Cl)cc2)nc1-c1c(O)cnn(C)c1=O | 0
CCc1c(C)c(-c2ccc(Cl)cc2)nn1-c1c(O)cnn(C)c1=O | 0
